- target_entity: EGFR (WT) (Homo sapiens, UniProt P00533)
- Sequence (P00533 669-1210 limits assumed): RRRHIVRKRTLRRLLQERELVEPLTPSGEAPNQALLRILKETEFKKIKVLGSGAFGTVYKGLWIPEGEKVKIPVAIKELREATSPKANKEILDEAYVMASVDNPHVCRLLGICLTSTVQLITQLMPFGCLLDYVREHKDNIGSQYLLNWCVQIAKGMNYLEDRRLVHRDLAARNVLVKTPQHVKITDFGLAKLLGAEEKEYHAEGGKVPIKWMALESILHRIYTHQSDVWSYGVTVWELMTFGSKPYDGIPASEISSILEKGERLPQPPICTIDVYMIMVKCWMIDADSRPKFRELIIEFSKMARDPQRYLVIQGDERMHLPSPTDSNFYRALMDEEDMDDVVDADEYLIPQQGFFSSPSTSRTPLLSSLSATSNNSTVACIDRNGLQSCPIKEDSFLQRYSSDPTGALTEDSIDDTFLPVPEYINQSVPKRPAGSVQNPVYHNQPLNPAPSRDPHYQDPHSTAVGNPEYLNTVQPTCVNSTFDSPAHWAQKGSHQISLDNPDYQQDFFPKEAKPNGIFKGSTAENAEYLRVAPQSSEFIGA
The molecules listed here are annotated with their IC50.
Give the quantity in nM, number only.

C=CC(=O)N[C@H]1CC(=C)c2c(-c3cnc4ccccc4c3)c3c(N)ncnc3n2C1
7.9
C#CC(=O)N[C@@H]1Cn2c(c(-c3cnc4ccccc4c3)c3c(N)ncnc32)C1=C
1

# evaluate next
Query: Write down the reported IC50 (system: EGFR (WT) (Homo sapiens, UniProt P00533)) of C=CC(=O)N[C@H]1C=C(C)c2c(-c3cnc4ccccc4c3)c3c(N)ncnc3n2C1
Response: 2.9

----------
- target_entity: EGFR (T790M/L858R) (Homo sapiens, UniProt P00533, L858R/T790M)
- Sequence (P00533 25-1210 T790M/L858R): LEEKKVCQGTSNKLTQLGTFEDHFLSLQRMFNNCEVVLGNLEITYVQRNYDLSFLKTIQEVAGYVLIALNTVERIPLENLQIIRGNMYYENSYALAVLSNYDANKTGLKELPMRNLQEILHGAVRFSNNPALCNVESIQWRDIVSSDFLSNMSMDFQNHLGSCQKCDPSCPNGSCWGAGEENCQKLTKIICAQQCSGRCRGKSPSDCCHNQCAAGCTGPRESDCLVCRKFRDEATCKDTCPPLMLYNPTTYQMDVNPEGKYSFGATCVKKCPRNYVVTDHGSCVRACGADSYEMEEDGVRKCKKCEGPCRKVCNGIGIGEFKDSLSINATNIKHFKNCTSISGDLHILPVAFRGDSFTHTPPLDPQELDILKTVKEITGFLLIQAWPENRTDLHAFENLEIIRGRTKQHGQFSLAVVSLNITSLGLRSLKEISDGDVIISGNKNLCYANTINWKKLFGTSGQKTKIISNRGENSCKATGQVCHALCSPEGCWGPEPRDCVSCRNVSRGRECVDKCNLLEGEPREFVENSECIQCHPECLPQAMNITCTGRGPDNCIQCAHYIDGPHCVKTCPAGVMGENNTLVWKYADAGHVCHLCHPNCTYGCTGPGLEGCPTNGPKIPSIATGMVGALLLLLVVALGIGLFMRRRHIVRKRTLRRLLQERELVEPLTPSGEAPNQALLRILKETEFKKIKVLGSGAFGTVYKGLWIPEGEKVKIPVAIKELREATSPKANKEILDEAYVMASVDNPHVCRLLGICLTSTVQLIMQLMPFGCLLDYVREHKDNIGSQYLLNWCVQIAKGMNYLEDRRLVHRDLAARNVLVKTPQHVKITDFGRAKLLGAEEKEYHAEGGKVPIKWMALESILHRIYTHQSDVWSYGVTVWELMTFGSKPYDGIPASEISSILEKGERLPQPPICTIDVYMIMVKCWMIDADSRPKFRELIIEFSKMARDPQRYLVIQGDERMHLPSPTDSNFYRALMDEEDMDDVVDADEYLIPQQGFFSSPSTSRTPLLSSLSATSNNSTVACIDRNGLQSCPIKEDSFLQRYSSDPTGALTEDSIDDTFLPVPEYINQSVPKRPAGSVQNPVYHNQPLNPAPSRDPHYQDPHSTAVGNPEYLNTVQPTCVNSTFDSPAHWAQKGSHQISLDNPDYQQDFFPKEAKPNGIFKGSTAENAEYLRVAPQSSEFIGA
- test_protocol: EGFR (T790M/L858R) kinase inhibitory activity
- assay_context: ATP 1 μM, 25° C. for 120 minutes
Lab note - cut at 1 nM for IC50: 1.0 if strictly below, 0.0 if not.

Query: Quick check: IC50 of C=C(C)C(=O)N[C@@H]1Cn2c(c(-c3cnc4ccccc4c3)c3c(N)ncnc32)C1=C under 1 nM?
Response: 0.0

Query: Quick check: IC50 of C=CC(=O)N[C@@H]1CCn2c(c(-c3cnc4ccccc4c3)c3c(N)ncnc32)C(=C)C1 under 1 nM?
Response: 0.0

Query: Quick check: IC50 of C=CC(=O)N[C@H]1C=Cc2c(-c3cnc4ccccc4c3)c3c(N)ncnc3n2CC1 under 1 nM?
Response: 1.0

Query: Quick check: IC50 of C=C1c2c(-c3cnc4ccccc4c3)c3c(N)ncnc3n2C[C@H]1NC(=O)/C=C/CN(C)C under 1 nM?
Response: 1.0
